Entries and their measured pIC50 follow.
# Tested on: PDE1
# protocol.text: In vitro HTRF PDE1 inhibition assay
# Assay type: biochemical
# condition.description: HTRF cGMP assay, 100 nM cyclic GMP, PDE (1A3, 1B or 1C) with calmodulin, 45 minutes at 37° C.; isoform of the tabulated values not stated
pIC50: −log10 of the molar value.

Study these solved cases before continuing.
molecule | target.system | measurement.label | reported.value
COc1ccc(CN2CCn3c(nc4c(cnn4C(C)C)c3=O)C2)cc1 [Compound I-82] | PDE1 | pIC50 | > 6.00
Cn1ncc2c(=O)n3c(nc21)C(Cc1ccccc1)N(Cc1ccccc1)CC3 (racemic) [Compound I-35] | PDE1 | pIC50 | < 5.00
COc1ccc(C(=O)N2CCn3c(nc4c(cnn4C4CCCC4)c3=O)C2)cc1 [Compound I-116] | PDE1 | pIC50 | > 6.00

Value of pIC50 reported for the molecule Cc1ccc(CN2CCn3c(nn4c(C(C)C)ncc4c3=O)C2)cn1 [Compound I-188] is 5.00 to 6.00

The molecule listed as CC(C)Cc1nnc2c(=O)n3c(nn12)CN(Cc1ccccc1)CC3 [Compound I-214] has a reported pIC50 of 5.00 to 6.00

====

# Test system: PDE1
# protocol.text: In vitro HTRF PDE1 inhibition assay
# Type: biochemical
# condition.description: HTRF cGMP assay, 100 nM cyclic GMP, PDE (1A3, 1B or 1C) with calmodulin, 45 minutes at 37° C.; isoform of the tabulated values not stated
# Description: An exemplary procedure for the in vitro Homogenous Time Resolved Fluorescence assay, which can be used to determine the inhibitory action of compounds of the invention toward. PDE1 or its isoforms, follows. The HTRF PDE1 assay utilized the HTRF (Homogenous Time Resolved Fluorescence) technology, which is based on the competition between unlabeled cyclic nucleotide and cyclic nucleotide labeled with XL665 for the binding to cyclic nucleotide-specific antibody labeled with cryptate. […]
measurement.label: IC50

compound | target.system | IC50
CCOc1cc(N2CCn3c(nn4c(C5CCCC5)ncc4c3=O)C2)ccc1F [Compound I-184] | PDE1 | < 1 µM
CC1c2nc3c(cnn3C)c(=O)n2CCN1C (racemic) [Compound I-20] | PDE1 | > 10 µM
CN1CCn2c(nc3c(cnn3C)c2=O)C1 [Compound I-17] | PDE1 | > 10 µM
Cc1cnc(CN2CCn3c(nc4c(cnn4C(C)C)c3=O)C2)cn1 [Compound I-206] | PDE1 | 1 to 10 µM

Query compound follows.
Reported IC50 of CC(C)c1nn(C)c2c(=O)n3c(nc12)CNCC3 [Compound I-13] : > 10 µM

====

# System: PDE1
# protocol.text: In vitro HTRF PDE1 inhibition assay
# Format: biochemical
# condition.description: HTRF cGMP assay, 100 nM cyclic GMP, PDE (1A3, 1B or 1C) with calmodulin, 45 minutes at 37° C.; isoform of the tabulated values not stated
Measured IC50, listed per entry for reference.

Completed entries (count: 6):
molecule | reported.value
Cc1cnc(CN2CCn3c(nn4c(C5CCCC5)ncc4c3=O)C2)nc1 | 1 to 10 µM
CC(C)c1n[nH]c2c(=O)n3c(nc12)C(Cc1ccccc1)N(Cc1ccccc1)CC3 (racemic) | > 10 µM
O=c1c2cnn(-c3ccccc3)c2nc2n1CCN(Cc1ccccc1)C2 | > 10 µM
CC(C)c1ncc2c(=O)n3c(nn12)CN(c1ccc(C#N)cc1)CC3 | < 1 µM
CC1Cn2c(nc3c(cnn3C(C)C)c2=O)CN1Cc1ccc(Cl)cc1 (racemic) | < 1 µM
COc1ccc(CN2CCc3nc4c(cnn4C(C)C)c(=O)n3CC2)cc1 | > 10 µM

// sample CC(C)c1nnc2c(=O)n3c(nn12)CN(Cc1ccc(Cl)cc1)CC3 , its IC50 was 1 to 10 µM

Note to self: IC50 recorded for CC(C)Cc1nnc2c(=O)n3c(nn12)CN(CCc1ccccc1)CC3 was 1 to 10 µM
